Target: EPHB2 (UniProt P29323)
Sequence (P29323 whole entry, looked up): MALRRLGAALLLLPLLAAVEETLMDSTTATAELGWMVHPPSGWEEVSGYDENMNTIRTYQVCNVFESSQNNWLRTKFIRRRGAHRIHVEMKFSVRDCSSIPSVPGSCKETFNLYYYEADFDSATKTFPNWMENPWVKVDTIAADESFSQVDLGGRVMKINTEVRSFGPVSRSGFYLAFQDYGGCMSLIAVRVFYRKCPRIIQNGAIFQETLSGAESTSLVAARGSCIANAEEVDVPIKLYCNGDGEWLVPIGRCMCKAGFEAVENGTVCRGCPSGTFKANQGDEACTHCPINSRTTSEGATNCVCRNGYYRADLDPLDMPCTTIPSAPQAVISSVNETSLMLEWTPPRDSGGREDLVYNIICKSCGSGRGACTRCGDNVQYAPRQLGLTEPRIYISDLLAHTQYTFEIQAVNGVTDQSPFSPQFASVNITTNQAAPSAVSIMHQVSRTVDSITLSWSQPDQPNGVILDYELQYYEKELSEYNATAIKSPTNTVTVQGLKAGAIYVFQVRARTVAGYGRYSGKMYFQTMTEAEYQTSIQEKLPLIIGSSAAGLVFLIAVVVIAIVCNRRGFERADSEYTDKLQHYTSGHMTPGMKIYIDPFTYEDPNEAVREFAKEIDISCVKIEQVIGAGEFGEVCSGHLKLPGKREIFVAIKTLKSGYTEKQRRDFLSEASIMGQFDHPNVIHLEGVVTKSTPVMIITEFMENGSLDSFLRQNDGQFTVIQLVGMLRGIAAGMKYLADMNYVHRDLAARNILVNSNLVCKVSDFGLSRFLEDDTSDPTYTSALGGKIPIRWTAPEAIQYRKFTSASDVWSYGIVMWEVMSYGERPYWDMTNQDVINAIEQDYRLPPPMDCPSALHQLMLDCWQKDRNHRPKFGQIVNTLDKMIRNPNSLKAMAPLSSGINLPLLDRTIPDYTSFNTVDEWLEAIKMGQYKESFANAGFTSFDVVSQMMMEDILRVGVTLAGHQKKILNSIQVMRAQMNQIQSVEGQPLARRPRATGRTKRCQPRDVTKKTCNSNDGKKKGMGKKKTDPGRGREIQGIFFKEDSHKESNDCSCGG
Test: phosphorylation enrichment, bacterial display (enrichment ratio); higher = better substrate or ligand; peptides without Tyr show the background
measurement-label: phosphorylation enrichment
Please respond with just the number, no unit label.

Worked cases, answers included:
chain-sequence	phosphorylation enrichment
DEYLEYRRIVG [FAM221A_Y20]	0.615
IQKKYYRAILE [CHD7_Y1218]	0.586
AEFGLYRAMVR [VSX2_Y222_G223R_YF]	0.595
SAASGYSDVTD [DTX2_Y425_T421A]	0.589
GLAKGYIDPET [CSNK1G2_Y195_E194G]	0.588
ASPALYRLDLD [TRIL_Y352]	0.596

In plain terms, WRVISYHVVVW [ATP13A2_Y50_G49S] has a documented phosphorylation enrichment of 0.61

In plain terms, EVKRLYGSVCD [TC2N_Y154] has a documented phosphorylation enrichment of 0.585

In plain terms, RPASVYTKRCS [CPT2_Y508] has a documented phosphorylation enrichment of 0.603

###

Tested on: c-Src
Assay: phosphorylation enrichment, bacterial display (enrichment ratio); higher = better substrate or ligand; peptides without Tyr show the background
Overview of reported phosphorylation enrichment across a group of sequences:

Worked cases, answers included:
chain-sequence	assay-value
GLRYGYGGLGG [KRTAP20-2_Y15_V17G]	0.398
AACQHYGVRTC [NR4A2_Y275]	0.408
MKKMHYVDPDH [ST3GAL5_Y99]	0.402

In plain terms, RHLQEYQDLLN [GFAP_Y349] has a documented phosphorylation enrichment of 0.399

###

Target: c-Src SH2
Experiment: SH2 binding enrichment of the phosphorylated peptide, bacterial display (enrichment ratio); higher = better substrate or ligand; peptides without Tyr show the background
Overview of reported SH2 binding enrichment across a group of sequences:
Please respond with just the number, no unit label.

Worked cases, answers included:
chain-sequence	measured-target	assay-value
AFHGEYIPTVF [RAC2_Y32_P29H]	c-Src SH2	0.682
DTYDPYLDVAL [USP36_Y268]	c-Src SH2	0.509

Let's switch to this sequence now.
In plain terms, RLAQRYLIWEC [SCN5A_Y694] has a documented SH2 binding enrichment of 0.691

###

Target: Grb2 SH2 (UniProt P62993)
Sequence (P62993 whole entry, looked up): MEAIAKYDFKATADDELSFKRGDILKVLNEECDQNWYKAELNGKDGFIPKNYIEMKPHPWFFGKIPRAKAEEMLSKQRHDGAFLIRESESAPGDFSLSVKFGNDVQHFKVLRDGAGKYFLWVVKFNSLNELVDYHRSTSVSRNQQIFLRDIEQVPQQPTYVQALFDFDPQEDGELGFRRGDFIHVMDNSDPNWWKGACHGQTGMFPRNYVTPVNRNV
Assay: SH2 binding enrichment of the phosphorylated peptide, bacterial display (enrichment ratio); higher = better substrate or ligand; peptides without Tyr show the background
Overview of reported SH2 binding enrichment across a group of sequences:
Please respond with just the number, no unit label.

Worked cases, answers included:
chain-sequence	SH2 binding enrichment
EIRTQYEVMAS [GFAP_Y242_A244V]	0.767
DRKRQYELLKL [KIF4B_Y684]	1.17
SDQPDYDSVAS [GIT2_Y392_N387S]	0.783
PYIDSYEKDVA [PGM1_Y521_L516P]	0.802
KKHFSYAWPFY [BRDT_Y291]	1.73

Let's switch to this sequence now.
In plain terms, DTYDPYLDVAL [USP36_Y268] has a documented SH2 binding enrichment of 0.751

###

Overview of reported SH2 binding enrichment across a group of sequences:
Target: c-Src SH2
Test: SH2 binding enrichment of the phosphorylated peptide, bacterial display (enrichment ratio); higher = better substrate or ligand; peptides without Tyr show the background
Please respond with just the number, no unit label.

Worked cases, answers included:
chain-sequence	assay-value
NFADPYRQLPF [CTNND2_Y503_Q507P_YF]	0.612
LSKDLYLISQM [LARP4_Y141]	0.413

# MSNFAYVKREV [SCN1A_Y1694] with c-Src SH2: SH2 binding enrichment is 0.466

# LNNIIYRVERA [CUX2_Y1470] with c-Src SH2: SH2 binding enrichment is 0.558

###

Target: MERTK (UniProt Q12866)
Sequence (Q12866 whole entry, looked up): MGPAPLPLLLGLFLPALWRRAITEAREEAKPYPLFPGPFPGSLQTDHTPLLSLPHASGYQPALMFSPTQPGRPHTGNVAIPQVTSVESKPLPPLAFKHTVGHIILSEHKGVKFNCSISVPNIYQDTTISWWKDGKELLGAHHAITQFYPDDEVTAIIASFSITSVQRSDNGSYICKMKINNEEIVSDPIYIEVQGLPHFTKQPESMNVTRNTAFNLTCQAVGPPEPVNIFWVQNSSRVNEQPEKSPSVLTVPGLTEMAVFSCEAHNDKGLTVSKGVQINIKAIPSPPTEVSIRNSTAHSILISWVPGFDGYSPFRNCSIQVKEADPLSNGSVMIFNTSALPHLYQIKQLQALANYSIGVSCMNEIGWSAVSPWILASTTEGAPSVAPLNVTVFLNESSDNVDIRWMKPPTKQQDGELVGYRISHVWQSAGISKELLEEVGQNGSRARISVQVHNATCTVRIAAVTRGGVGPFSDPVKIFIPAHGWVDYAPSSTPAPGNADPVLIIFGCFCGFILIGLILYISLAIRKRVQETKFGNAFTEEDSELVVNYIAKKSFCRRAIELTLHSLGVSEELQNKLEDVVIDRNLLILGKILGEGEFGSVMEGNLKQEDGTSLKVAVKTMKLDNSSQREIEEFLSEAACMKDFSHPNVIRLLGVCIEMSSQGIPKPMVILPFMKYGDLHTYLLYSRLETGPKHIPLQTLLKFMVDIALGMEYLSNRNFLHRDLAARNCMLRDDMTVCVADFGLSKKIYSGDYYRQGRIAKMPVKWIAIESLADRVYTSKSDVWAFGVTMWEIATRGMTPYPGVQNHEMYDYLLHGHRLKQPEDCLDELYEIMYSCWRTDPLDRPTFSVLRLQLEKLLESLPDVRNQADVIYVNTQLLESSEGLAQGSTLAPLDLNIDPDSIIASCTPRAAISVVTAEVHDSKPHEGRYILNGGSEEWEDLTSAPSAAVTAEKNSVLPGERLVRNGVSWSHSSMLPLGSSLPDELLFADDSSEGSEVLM
Test: phosphorylation enrichment, bacterial display (enrichment ratio); higher = better substrate or ligand; peptides without Tyr show the background
Overview of reported phosphorylation enrichment across a group of sequences:
Please respond with just the number, no unit label.

chain-sequence	assay-value
EKDSNYCLCRT [ASIC2_Y357]	0.601
FGLPRYRWLTH [TSPAN12_Y143_YF]	0.585
TRTDAYAVSSF	0.388
LTERGYSFTTK [ACTG1_Y198_T203K]	1.79
LRWREYQRQDY [PRKRIP1_Y90_R87W]	0.409

In plain terms, EADRKYEEVAC [TPM3_Y163_R168C] has a documented phosphorylation enrichment of 0.545

###

Target: EPHB2 (UniProt P29323)
Assay: phosphorylation enrichment, bacterial display (enrichment ratio); higher = better substrate or ligand; peptides without Tyr show the background
measurement-label: phosphorylation enrichment
Please respond with just the number, no unit label.

Worked cases, answers included:
chain-sequence	phosphorylation enrichment
IDGLEYLHSQG [STK11_Y166]	0.499
DEFLEHRRIVG [FAM221A_Y20_Y20H_YF]	0.494
LARHMYDKEYY [MET_Y1230_D1228H]	0.811
LVTCSYLLGNS [LMNA_Y646_R644C]	1.56
QEGPEYWDRET [HLA-A_Y83_Q86R]	0.946
SHSMRYFYTAV [HLA-C_Y31_D33Y]	0.689
AAILGYCRGEA [XPC_Y669]	0.45
LRFDVYGGENE [STOX1_Y610_E608D_YF]	0.644

Let's switch to this sequence now.
In plain terms, ALAAPYVLYPG [CEFIP_Y1332] has a documented phosphorylation enrichment of 0.488

###

Overview of reported phosphorylation enrichment across a group of sequences:
System: c-Abl (mouse)
Assay: phosphorylation enrichment, bacterial display (enrichment ratio); higher = better substrate or ligand; peptides without Tyr show the background

Worked cases, answers included:
chain-sequence	phosphorylation enrichment
IVEYAYNDKAI [PUM3_Y259]	0.859
ILDEAYVMASV [EGFR_Y764]	0.692
CQAHGYSCQLI [STK11_Y156_F157S]	0.492
YSSLGYPPPEG [ZSWIM4_Y87]	0.66
ANLAKYGNPNE [BCHE_Y505_F502L]	0.565
DRKRQYELLKL [KIF4B_Y684]	0.545
MCDSHYLESRS [CLK1_Y56]	0.493
KLIETYFSKNY [PLP1_Y50]	0.574
PSTFRYERGSR [INPPL1_Y663_P659S_YF]	0.628
ADYPDYKYRPR [SOX11_Y116]	0.461

# FRPPYYHRNCM [HGD_Y334] with c-Abl (mouse): phosphorylation enrichment is 0.799

# ESLSSYRESAK [APOC2_Y47_W48R] with c-Abl (mouse): phosphorylation enrichment is 0.495

# LEYNEYFRDLN [HPRT1_Y198_D194E] with c-Abl (mouse): phosphorylation enrichment is 1.3

# RPSRWYQFPVA [ANOS1_Y259_R262P] with c-Abl (mouse): phosphorylation enrichment is 0.657

# GIATGYLVLKE [DNMT3B_Y588] with c-Abl (mouse): phosphorylation enrichment is 0.533

# SDQPDYDSVAS [GIT2_Y392_N387S] with c-Abl (mouse): phosphorylation enrichment is 0.729

# GMTLSYLFREL [NDUFS8_Y74_P79L] with c-Abl (mouse): phosphorylation enrichment is 0.603

# GVKLTYGDAQS [SLC28A1_Y404_N409S] with c-Abl (mouse): phosphorylation enrichment is 0.52

# LSGVIYVILWK [PMP22_Y153_R157W] with c-Abl (mouse): phosphorylation enrichment is 0.996

# KLFIEYPTGSG [IRF2BPL_Y423] with c-Abl (mouse): phosphorylation enrichment is 0.521

# GGGGSYNDFGN [HNRNPA1_Y312] with c-Abl (mouse): phosphorylation enrichment is 0.458

# LASSEYPVRRR [GALK1_Y236] with c-Abl (mouse): phosphorylation enrichment is 0.448

# LVPPRYARSEI [PKP2_Y194] with c-Abl (mouse): phosphorylation enrichment is 0.345

# RLLCEYQELMN [KRT75_Y434_R432C] with c-Abl (mouse): phosphorylation enrichment is 0.804

# IVWDSYTTNKV [GNB3_Y85] with c-Abl (mouse): phosphorylation enrichment is 0.718

# QEIATYRRLRE [KRT17_Y384_L388R] with c-Abl (mouse): phosphorylation enrichment is 0.597

# YGAHNYHPLPV [OAT_Y55] with c-Abl (mouse): phosphorylation enrichment is 0.675

# HLGNQYVNVMN [SLC3A1_Y461_R456H] with c-Abl (mouse): phosphorylation enrichment is 0.764

###

Biological target: Fes (UniProt P07332)
Sequence (P07332 whole entry, looked up): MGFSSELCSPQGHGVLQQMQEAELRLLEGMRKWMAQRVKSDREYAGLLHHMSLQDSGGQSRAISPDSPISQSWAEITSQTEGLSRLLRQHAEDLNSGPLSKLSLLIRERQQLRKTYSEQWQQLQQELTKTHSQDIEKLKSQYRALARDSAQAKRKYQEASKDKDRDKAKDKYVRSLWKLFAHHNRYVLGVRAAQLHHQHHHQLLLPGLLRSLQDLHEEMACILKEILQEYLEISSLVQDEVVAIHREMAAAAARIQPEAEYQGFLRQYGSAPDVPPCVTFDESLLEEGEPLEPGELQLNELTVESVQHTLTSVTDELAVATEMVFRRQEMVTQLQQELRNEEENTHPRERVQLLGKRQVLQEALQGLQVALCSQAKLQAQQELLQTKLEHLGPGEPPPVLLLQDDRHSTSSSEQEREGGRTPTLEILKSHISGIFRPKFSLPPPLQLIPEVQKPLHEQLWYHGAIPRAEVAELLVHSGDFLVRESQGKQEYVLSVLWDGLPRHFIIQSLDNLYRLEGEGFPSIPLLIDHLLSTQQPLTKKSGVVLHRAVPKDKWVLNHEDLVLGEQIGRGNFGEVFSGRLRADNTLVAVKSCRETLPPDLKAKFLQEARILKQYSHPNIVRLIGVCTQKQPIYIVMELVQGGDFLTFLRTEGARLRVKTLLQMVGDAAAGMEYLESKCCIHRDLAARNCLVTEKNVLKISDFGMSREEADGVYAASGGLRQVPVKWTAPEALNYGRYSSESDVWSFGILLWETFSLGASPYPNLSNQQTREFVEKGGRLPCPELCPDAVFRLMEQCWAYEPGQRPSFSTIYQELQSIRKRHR
Experiment: phosphorylation enrichment, bacterial display (enrichment ratio); higher = better substrate or ligand; peptides without Tyr show the background
Overview of reported phosphorylation enrichment across a group of sequences:

chain-sequence	measured-target	assay-value
SGSFRYGSSFE [SELE_Y390_C394F]	Fes (UniProt P07332)	0.686

In plain terms, QGRQTYLPQPA [DDR2_Y813] has a documented phosphorylation enrichment of 0.821

In plain terms, IDGLEYLHSQG [STK11_Y166] has a documented phosphorylation enrichment of 0.906
